Data origin, for the record: ChEMBL document CHEMBL5380855

# Test system: HCC1806
# protocol: Cytotoxicity against human HCC1806 cells assessed as inhibition of cell growth by resazurin dye based fluorescence analysis
# Type: functional
measured metric: EC50 (µM)
One number for each entry, in µM.

Lookup: EC50 / HCC1806 / `CCc1cc2c(cc1Cl)nc1c(=O)[nH]c(=O)nc-1n2CCOCC(C)C` 10.4

* * *

# protocol: Terminal elimination half life in CD1 mouse at 100 mg/kg, ip measured after 15 to 4320 mins by LC-MS/MS analysis
# Assay type: ADME, organism-based
# details: in vivo, time 15-4320 min, read-out: LambdaZ
measured metric: half-life (h)
One number for each entry, in h.

half-life lookup needed for `CCc1cc2c(cc1Cl)nc1c(=O)[nH]c(=O)nc-1n2CCOCC(C)C` , thanks. 25.4
